Measured values drawn from patent US4898858A for this set.

system: Enterobacter Cloacae G-0005; assay: minimum growth-inhibitory concentration (MIC) in vitro; format: cell-based
Measure Name: MIC (µg/mL)
# value in µg/mL; strip the unit string

Problem: Recorded MIC for Nc1nc(/C(=N/OC(CF)C(=O)O)C(=O)N[C@@H]2C(=O)N3C(C(=O)[O-])=C(CSc4cc[n+](CCF)cc4)CS[C@H]23)cs1 (stereo partly drawn) , please?
Result: 0.05

Problem: Reported MIC, compound Nc1nc(/C(=N/OC(C(=O)O)C2CCCCC2)C(=O)N[C@@H]2C(=O)N3C(C(=O)[O-])=C(CSc4cc[n+](CCF)cc4)CS[C@H]23)cs1 (stereo partly drawn) : ____
Result: 3.13

Problem: Consider the compound shown here: C[C@@H](O/N=C(\C(=O)N[C@@H]1C(=O)N2C(C(=O)[O-])=C(CSc3cc[n+](CCF)cc3)CS[C@H]12)c1csc(N)n1)C(=O)O What is its recorded MIC?
Result: 0.2

Problem: For the compound CC[n+]1ccc(SCC2=C(C(=O)[O-])N3C(=O)[C@@H](NC(=O)/C(=N\O[C@H](C)C(=O)O)c4csc(N)n4)[C@H]3SC2)cc1 , what MIC is on record?
Result: 0.2

Problem: // returns reported MIC for input C[C@H](O/N=C(\C(=O)N[C@@H]1C(=O)N2C(C(=O)[O-])=C(CSc3cc[n+](CCF)cc3)CS[C@H]12)c1csc(N)n1)C(=O)O
Result: 0.05

Problem: For the compound shown here, CC(O/N=C(\C(=O)N[C@@H]1C(=O)N2C(C(=O)[O-])=C(CSc3cc[n+](CCF)cc3)CS[C@H]12)c1csc(N)n1)C(=O)O (stereo partly drawn) , give the reported MIC.
Result: 0.05

* * *

These molecules were tested on Proteus rettgeri GN-624; MIC is the recorded read-out.

Examples with answers:
molecule=C[C@H](O/N=C(\C(=O)N[C@@H]1C(=O)N2C(C(=O)[O-])=C(CSc3cc[n+](C)cc3)CS[C@H]12)c1csc(N)n1)C(=O)O tgt="Proteus rettgeri GN-624" measure_name=MIC result="< 0.025 µg/mL"
molecule="Nc1nc(/C(=N/OC(CF)C(=O)O)C(=O)N[C@@H]2C(=O)N3C(C(=O)[O-])=C(CSc4cc[n+](CCF)cc4)CS[C@H]23)cs1 (stereo partly drawn)" tgt="Proteus rettgeri GN-624" measure_name=MIC result="< 0.025 µg/mL"

Now let's try a different one.
Problem: Give the reported MIC for CC[n+]1ccc(SCC2=C(C(=O)[O-])N3C(=O)[C@@H](NC(=O)/C(=N\O[C@H](C)C(=O)O)c4csc(N)n4)[C@H]3SC2)cc1 (system: Proteus rettgeri GN-624).
Result: < 0.025 µg/mL

* * *

test system: Klebsiella pneumoniae GN-69; assay: minimum growth-inhibitory concentration (MIC) in vitro; format: cell-based; details: GN69; Klebsiella pneumoniae GN-69; in vitro; read-out: MIC-value
Measure Name: MIC

In the examples that follow, each entry is paired with its recorded MIC.
molecule="CC(O/N=C(\\C(=O)N[C@@H]1C(=O)N2C(C(=O)[O-])=C(CSc3cc[n+](CCF)cc3)CS[C@H]12)c1csc(N)n1)C(=O)O (stereo partly drawn)" result="< 0.025 mg/L"
molecule=C[C@H](O/N=C(\C(=O)N[C@@H]1C(=O)N2C(C(=O)[O-])=C(CSc3cc[n+](C)cc3)CS[C@H]12)c1csc(N)n1)C(=O)O result="< 0.025 mg/L"

Now examine the next entry.
Problem: Tell me the measured MIC of CC[n+]1ccc(SCC2=C(C(=O)[O-])N3C(=O)[C@@H](NC(=O)/C(=N\O[C@@H](C)C(=O)O)c4csc(N)n4)[C@H]3SC2)cc1 , please.
Result: < 0.025 mg/L
